Tested on: mobilized peripheral blood CD34+ cells
assay info: CD34+ expansion assay
Format: cell-based
setup conditions: Homo sapiens; read-out: CD34 Frequency EC50
outcome measure: EC50

| molecule | endpoint value |
| --- | --- |
| OCCCc1nc2n(n1)C(c1cccc(Br)c1)C=C(c1ccc(Cl)cc1)N2 (stereo not shown) | 500 to 1000 nM |

Which EC50 reading was recorded for the molecule `O=[N+]([O-])c1ccc(-c2cn3nc(C(F)(F)F)sc3n2)cc1` ?
500 to 1000 nM

Which EC50 reading was recorded for the molecule `CCOC(=O)N1CCN(c2nc(CC)nc3sc(C)cc23)CC1` ?
1000 to 5000 nM

Which EC50 reading was recorded for the molecule `Cc1ccc(NC(=O)c2cn3ccccc3n2)cc1` ?
500 to 1000 nM

The origin of these recorded values is patent US20210220408A1.
